Assay: Toxicity liver stage against HepG2, at 10uM
Assay type: cell-based
Set-up: test concentration 10 uM, cell line HepG2-A16-CD81EGFP
Conditions: human, HepG2-A16-CD81EGFP cells; read-out: INHIBITION
Assay Endpoint: cytotoxicity at 10 µM (%)
One number for each entry, in %.

Molecule | Assay Endpoint | Quantity Unit | Reported Measurement
Cc1cc(NC(=O)CNc2ccc(Br)cc2F)on1 | cytotoxicity at 10 µM | % | -28.1
Cn1ncc2c1C(COCC1CC1)CN(Cc1ccncc1)C2 (stereo not given) | cytotoxicity at 10 µM | % | 7.22

Hey, can you go through the list below and give me cytotoxicity at 10 µM for every item?
1. Cn1nc2c(cc1=O)CN(Cc1nnc(-c3ccco3)o1)CC2
2. CC(Oc1ccc(F)cc1F)C(=O)N1CCC2(CC1)CC(=O)N(C)C2 (stereo not given)
3. CN(C)c1ncnc2c1CCN(c1cc(C(F)(F)F)ncn1)CC2
4. NC(=O)CN1CCCN(C(=O)Cc2ccc3c(c2)OCCO3)CC1
5. Cc1cc(C(=O)N2CCC3(CCNCC3)CC2)c2cccc(C)c2n1
6. CN1CCCN(C[C@@H]2CN(C(=O)CCC3CCCC3)C[C@@H]2CO)CC1

-4.64
1.63
9.55
0.169
-15.6
-20.6

State recorded cytotoxicity at 10 µM for all listed molecules.
1. CCOCCOC(C)C(=O)NCc1cn2cc(Br)ccc2n1 (stereo not given)
2. Cc1nc(NC2CCCC2)c2c(n1)c(C)nn2C

[-6.83, 14.1]

---

Assay: Toxicity liver stage against HepG2, at 10uM
Format: cell-based
Set-up: test concentration 10 uM, cell line HepG2-A16-CD81EGFP
Conditions: human, HepG2-A16-CD81EGFP cells; read-out: INHIBITION
Assay Endpoint: cytotoxicity at 10 µM (%)
Give bare numbers, in %.

Hello, I would appreciate it if you could give cytotoxicity at 10 µM for each entry below.
1. CCC1CC(=O)NCc2nc3sc(C)cn3c21 (centres undefined)
2. Cc1cc2ccncc2n1CC1(O)CCN(C(=O)c2cccnc2)CC1
3. CN1C(=O)CO[C@H](c2ccc(NC(=O)Cc3cccs3)cc2)[C@H]1CO
4. Cc1nnc(SC2CCc3ccccc3NC2=O)n1C (centres undefined)

5.27
4.18
0.931
-1.31

---

Kindly state cytotoxicity at 10 µM for each of the entries shown.
Assay: Toxicity liver stage against HepG2, at 10uM
Format: cell-based
Design: test concentration 10 uM, cell line HepG2-A16-CD81EGFP
Settings: human, HepG2-A16-CD81EGFP cells; read-out: INHIBITION
Numbers only, in %.

Molecule | Reported Measurement
O=C1Nc2ccccc2NC12CCN(Cc1nnc(C3CC3)o1)CC2 | -7.03
Cc1occc1CNC(=O)N1CCC(Cc2cnn(C)c2)C1 (stereo not drawn) | -11.1

Shifting focus to the molecule that follows.
Reported cytotoxicity at 10 µM of O=C(O)CNC(=O)Cc1csc(-c2cccc(Cl)c2)n1 : 4.32

---

Test: Toxicity liver stage against HepG2, at 10uM
Assay type: cell-based
Design: test concentration 10 uM, cell line HepG2-A16-CD81EGFP
Settings: human, HepG2-A16-CD81EGFP cells; read-out: INHIBITION
Assay Endpoint: cytotoxicity at 10 µM (%)
Give bare numbers, in %.

Molecule | cytotoxicity at 10 µM / %
Cc1ncc(CN2CCCC2c2ccc(C(=O)NCc3ccoc3)s2)s1 (centres undefined) | -1.06
CC(NC(=O)Nc1cccnc1N1CCCC1)c1ccncc1 (centres undefined) | -19.3
Cc1nnc(C2CCN(C(=O)c3ccc4[nH]ccc4c3)CC2)s1 | 15
COC(=O)NCCC(=O)NC(c1ccc(Cl)cc1)C(F)(F)F (centres undefined) | 7.51
COc1ccc(N2CCN(CC(O)c3cc(C)ccc3C)CC2)cc1 (centres undefined) | 7.25
COc1cccc(-c2nc(C)c(C(=O)N[C@@H](CCSC)C(=O)O)s2)c1 | -1.64

Would you be so kind as to report cytotoxicity at 10 µM for each listed record?
1. COc1ccc(CN2CC(O)CN(C(=O)CC(C)C)CC2=O)cc1 (centres undefined)
2. CN1Cc2nc[nH]c2C[C@H]1C(=O)NC1CCCCC1
3. Cc1[nH]c(=O)[nH]c(=O)c1CN1CCCC(CCc2ccccc2)C1 (centres undefined)

1. -0.634
2. 0.0515
3. -11.4

---

Kindly state cytotoxicity at 10 µM for each of the entries shown.
Test: Toxicity liver stage against HepG2, at 10uM
Format: cell-based
Set-up: test concentration 10 uM, cell line HepG2-A16-CD81EGFP
Settings: human, HepG2-A16-CD81EGFP cells; read-out: INHIBITION
Give bare numbers, in %.

Parameter requested: cytotoxicity at 10 µM. Apply to each item below.
1. CC(NC(=O)N1CCC(OCc2ccccc2)CC1)c1nncn1C (stereo not drawn)
2. CC1c2ncc(COc3cccnc3)n2CCN1Cc1cnn(C)c1 (stereo not drawn)

1: -1.49; 2: -112

Per the record, Cc1nc(O)cc(CCNC(=O)C2CC(=O)N(CC(C)C)C2)n1 (stereo not drawn) has cytotoxicity at 10 µM of -8.11

---

Can you tell me cytotoxicity at 10 µM for the items I'm about to list?
Test: Toxicity liver stage against HepG2, at 10uM
Type: cell-based
Parameters: test concentration 10 uM, cell line HepG2-A16-CD81EGFP
Settings: human, HepG2-A16-CD81EGFP cells; read-out: INHIBITION
One number for each entry, in %.

Compound | Reported Measurement
O=C(NCc1cc(-c2ccccc2)no1)NCC1CCCO1 (stereo not drawn) | -3.01
CN(CC(=O)NCCc1ccccn1)C(=O)c1cccs1 | 2.26
CCN(Cc1nc2c(cnn2C)c(=O)[nH]1)Cc1ccco1 | -2.8
C1CC(CN2CC[C@@H]3O[C@@H](c4nnc(C5CC5)o4)C[C@H]3C2)CCO1 | 5.35
NC(=O)CN1CC2(CCC1=O)CCN(Cc1ccc(F)cc1Cl)CC2 | 3.59

Hi there! I need cytotoxicity at 10 µM for each item below, if you can.
1. Cc1ccccc1CNC(=O)CN1CCCC(Cc2nccn2C)C1 (stereo not drawn)
2. O=C(NCCn1ccnc1)C1COCC(=O)N1Cc1ccccc1 (stereo not drawn)
3. Cc1ccc(CN2C[C@@H](N(C)C)[C@H]3OCCC[C@H]32)o1
4. COc1ccc(CN2CCCCCC2c2cccs2)c(O)c1 (stereo not drawn)
5. Cc1nc(C)n(CC2CCCN2CCOc2ccccc2C#N)n1 (stereo not drawn)
6. Cn1nnc2c1CCN(C(=O)C1CCC1)C2COCCN1CCCC1 (stereo not drawn)

-15.4
8.19
-136
3.6
-4.17
11

---

Assay: Toxicity liver stage against HepG2, at 10uM
Format: cell-based
Set-up: test concentration 10 uM, cell line HepG2-A16-CD81EGFP
Details: human, HepG2-A16-CD81EGFP cells; read-out: INHIBITION
Assay Endpoint: cytotoxicity at 10 µM (%)
Give bare numbers, in %.

Compound | Quantity Unit | Reported Measurement
Cc1ccc(S(=O)(=O)N2C[C@H]3C[C@H](NC(=O)c4ccn(C)n4)[C@H]3C2)cc1 | % | -1.11
COCCCC1(CO)CCCN(Cc2ccc(F)c(OC)c2)C1 (centres undefined) | % | -142
O=C1CCC2(CCCN(C(=O)c3ccc[nH]3)C2)CN1CCc1c[nH]cn1 (centres undefined) | % | 0.0773
COc1cccc(CN(C)Cn2nc(C(C)(C)C)ccc2=O)c1 | % | 1.12
CCN1CCN(Cc2nc(C)no2)CC1 | % | 0.978
CC(C)[C@H](N)c1nnc(SCC(=O)Nc2ccc(Br)cc2)o1 | % | -5.15
CN(CCc1ccccn1)C(=O)CCC1CCCN(c2ncccn2)C1 (centres undefined) | % | 1.64
Cc1cccc(C(C(=O)N2CC(c3ccccn3)C2)N(C)C)c1 (centres undefined) | % | -13.1
CCn1cc(C(=O)Nc2ccccc2C(=O)OC)cn1 | % | -7.25
CNS(=O)(=O)Cc1ccc(CNc2ccc(C#N)cn2)cc1 | % | -6.87

# map each compound to its cytotoxicity at 10 µM
1. O=C1OCCN1Cc1cccc(C(F)(F)F)c1F
2. NCCO[C@H]1C[C@@H](O)C12CCN(C(=O)CCOc1ccccc1)CC2

[-0.524, 3.12]

For every listed record, write down its cytotoxicity at 10 µM.
1. CCNC(=O)c1cccc(CNC(=O)c2cnc(C(C)(C)C)s2)c1
2. CN(C)Cc1cc(=O)n2c(n1)CN(C(=O)c1ccc[nH]1)CCC2

-0.969
-123

---

Please respond with reported cytotoxicity at 10 µM for every item in the list.
Assay: Toxicity liver stage against HepG2, at 10uM
Format: cell-based
Parameters: test concentration 10 uM, cell line HepG2-A16-CD81EGFP
Details: human, HepG2-A16-CD81EGFP cells; read-out: INHIBITION
One number for each entry, in %.

Molecule | Quantity Unit | cytotoxicity at 10 µM
Cc1nsc(N2CCCN(c3ccc(C#N)cn3)CC2)n1 | % | -1.32
Cc1ccsc1-c1nccn1C1CC(=O)N(C(C)C)C1 (stereo not drawn) | % | -9.73

# ---- query molecule ----
COc1cc(Cl)ccc1C(=O)NCC(=O)Nc1nccs1 yielded cytotoxicity at 10 µM of 6.62
